tested on: Zymoseptoria tritici; assay: Test C: wheat leaf blotch control on wheat seedlings; format: in vivo; settings: 250 ppm; wheat seedlings; 100 = 100% disease control, 0 = no control
Define the label as rule met when Test C disease control rating is strictly less than 70% and as rule not met in all remaining cases.

INSERT INTO measurements (compound, class_name) VALUES
  ('COc1ccnc(C(=O)NC(C)C(=O)OC(C)c2cc3ccccc3o2)c1O (mixture of isomers) [Compound 125]', 'rule not met'),
  ('COc1ccnc(C(=O)NC(C)C(=O)OC(C)c2ccc(C(F)(F)F)cc2)c1OC(C)=O (mixture of isomers) [Compound 35]', 'rule not met'),
  ('COc1ccc(COc2c(OC)ccnc2C(=O)NC(C)C(=O)OC(C)c2ccc(C3CCCCC3)cc2)cc1 (mixture of isomers) [Compound 155]', 'rule not met'),
  ('COc1ccnc(C(=O)N[C@@H](C)C(=O)OC(C)c2ccc(C(C)C)cc2)c1O (some centres unmarked) [Compound 118]', 'rule not met'),
  ('CCC(OC(=O)[C@H](C)NC(=O)c1nccc(OC)c1OC(C)=O)c1ccc(C2CCCCC2)cc1 (single isomer, unassigned) [Compound 131]', 'rule not met'),
  ('COc1ccnc(C(=O)NC(C)C(=O)OC(C)c2ccccc2C(F)(F)F)c1OC(C)=O (mixture of isomers) [Compound 18]', 'rule not met'),
  ('COc1ccnc(C(=O)N[C@@H](C)C(=O)OC(C)c2ccccc2Cc2ccccc2)c1O (single isomer, unassigned) [Compound 111]', 'rule met'),
  ('COc1ccnc(C(=O)N[C@@H](C)C(=O)OC(C)c2ccccc2-c2ccccc2)c1O (single isomer, unassigned) [Compound 2]', 'rule not met'),
  ('COc1ccnc(C(=O)NC(C)C(=O)OC(C)C2CCC(C(C)(C)C)CC2)c1O (mixture of isomers) [Compound 176]', 'rule met'),
  ('COc1ccnc(C(=O)N[C@@H](C)C(=O)OC(C)c2ccc(F)cc2Cc2ccccc2)c1OC(C)=O (single isomer, unassigned) [Compound 38]', 'rule met'),
  ('COc1ccnc(C(=O)N[C@@H](C)C(=O)OC(C)c2cccc3ccccc23)c1OC(C)=O (single isomer, unassigned) [Compound 116]', 'rule not met'),
  ('COc1cccc(C(=O)N[C@@H](C)C(=O)OC(C)c2ccccc2Cc2ccccc2)c1OC(C)=O (single isomer, unassigned) [Compound 7]', 'rule met'),
  ('CCC(OC(=O)[C@H](C)NC(=O)c1nccc(OC)c1OC(C)=O)C1CCCCC1 (single isomer, unassigned) [Compound 169]', 'rule not met'),
  ('COc1ccnc(C(=O)NC(C)C(=O)OC(C)C2CCC(C(F)(F)F)CC2)c1OC(C)=O (mixture of isomers) [Compound 180]', 'rule not met'),
  ('COc1ccnc(C(=O)NC(C)C(=O)OC(C)C2Cc3ccccc3O2)c1OC(C)=O (mixture of isomers) [Compound 186]', 'rule not met'),
  ('COc1ccnc(C(=O)N[C@@H](C)C(=O)OC(C)C2CCCc3ccccc32)c1O (single isomer, unassigned) [Compound 184]', 'rule not met'),
  ('COc1ccnc(C(=O)NC(C)C(=O)OC(C)c2ccc([N+](=O)[O-])cc2)c1OC(C)=O (mixture of isomers) [Compound 20]', 'rule met'),
  ('COc1ccnc(C(=O)N[C@@H](C)C(=O)OC(C)c2ccc(F)cc2Cc2ccccc2)c1OC(C)=O (single isomer, unassigned) [Compound 37]', 'rule not met'),
  ('COc1ccnc(C(=O)N[C@@H](C)C(=O)OC(C)c2cccc(OC3CCC(C)(C)CC3)c2)c1OC(C)=O (some centres unmarked) [Compound 137]', 'rule not met'),
  ('COc1ccnc(C(=O)NC(C)C(=O)OC(C#N)c2ccccc2)c1O (mixture of isomers) [Compound 159]', 'rule met'),
  ('CCOC(=O)c1ccn(-c2ccc(C(C)OC(=O)C(C)NC(=O)c3nccc(OC)c3O)cc2)n1 (mixture of isomers) [Compound 49]', 'rule met'),
  ('COc1ccnc(C(=O)N[C@@H](C)C(=O)OC(C)c2ccc(F)cc2Cc2ccccc2)c1O (single isomer, unassigned) [Compound 24]', 'rule met'),
  ('COc1ccnc(C(=O)N[C@@H](C)C(=O)OC(C)c2ccc(CC3CCCCC3)cc2)c1OC(C)=O (single isomer, unassigned) [Compound 129]', 'rule not met'),
  ('COc1cccc(C(=O)NC(C)C(=O)OC(C)C2CCCCC2)c1OC(C)=O (mixture of isomers) [Compound 92]', 'rule met'),
  ('COc1ccnc(C(=O)NC(C)C(=O)OC(C)c2ncc(C(F)(F)F)cc2Cl)c1O (mixture of isomers) [Compound 166]', 'rule met'),
  ('C=CCOc1c(OC)ccnc1C(=O)NC(C)C(=O)OC(C)c1ccc(C2CCCCC2)cc1 (mixture of isomers) [Compound 153]', 'rule met');
